# System: NCI-H1975
# PROTOCOL: Cytotoxicity in human NCI-H1975 cells assessed as reduction in cell viability incubated for 72 hrs by MTT assay
# Assay type: functional, cell-based
# CONDITIONS USED: NCI-H1975, 72 h
PARAMETER: IC50 (µM)
Give bare numbers, in µM.

Take a look at these entries with their results.
COc1cc2nccc(Oc3ccc(NC(=O)c4cnc(Cl)cc4Nc4ccc(F)c(Br)c4)cc3F)c2cc1OC: 1.06
COc1cc2nccc(Oc3ccc(NC(=O)c4cnc(Cl)cc4Nc4ccc(F)c(Br)c4)cc3)c2cc1OC: 3.54
COc1cc2nccc(Oc3ccc(NC(=O)c4cnc(Cl)cc4Nc4ccccc4Br)cc3)c2cc1OC: 8

Query: Which value of IC50 has been reported for COc1cc2nccc(Oc3ccc(NC(=O)C4(C(=O)Nc5ccc(F)cc5)CC4)cc3)c2cc1OC [CABOZANTINIB] in the records?
Response: 6.67

----------
# TARGET ENTITY: Aurora kinase A (Homo sapiens) (UniProt O14965)
# Sequence (whole entry): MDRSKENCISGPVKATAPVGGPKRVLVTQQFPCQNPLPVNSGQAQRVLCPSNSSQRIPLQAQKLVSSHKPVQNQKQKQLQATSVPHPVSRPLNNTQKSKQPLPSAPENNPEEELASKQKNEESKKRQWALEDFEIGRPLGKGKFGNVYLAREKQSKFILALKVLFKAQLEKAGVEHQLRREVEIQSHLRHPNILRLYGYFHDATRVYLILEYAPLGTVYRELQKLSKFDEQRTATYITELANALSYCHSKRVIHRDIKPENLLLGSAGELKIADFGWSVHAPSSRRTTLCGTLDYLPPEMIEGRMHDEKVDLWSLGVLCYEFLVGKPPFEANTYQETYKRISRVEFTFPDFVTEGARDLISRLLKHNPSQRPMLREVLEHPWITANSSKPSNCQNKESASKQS
# PROTOCOL: Inhibition of Aurora A (unknown origin) at 0.2 uM pre-incubated for 10 mins before FAM-labeled peptide substrate addition by mobility shift assay relative to control
Classify by measured inhibition: Condition met if it is equal to or exceeds 50%, Condition not met if it is smaller.

The following compounds have reported results that may help.
COc1cc2nccc(Oc3ccc(NC(=O)c4cnc(Cl)cc4Nc4ccc(F)cc4)cc3)c2cc1OC: Condition not met
COc1cc2nccc(Oc3ccc(NC(=O)c4c[nH]c(=O)cc4Nc4ccccc4)cc3)c2cc1OC: Condition not met
COc1cc2nccc(Oc3ccc(NC(=O)c4c(Nc5ccc(F)c(Br)c5)cc(C)nc4Cl)cc3F)c2cc1OC: Condition not met
COc1cc2nccc(Oc3ccc(NC(=O)c4cnc5ccc(Br)cc5c4Nc4ccc(F)c(Br)c4)cc3F)c2cc1OC: Condition not met
COc1cc2nccc(Oc3ccc(NC(=O)c4cnc(Cl)cc4Nc4cccc(Cl)c4)cc3)c2cc1OC: Condition met

Query: I'd appreciate it if you could say whether COc1cc2nccc(Oc3ccc(NC(=O)c4cnc(Cl)cc4Nc4ccccc4Cl)cc3)c2cc1OC has inhibition at least equal to 50%.
Response: Condition met

Query: I'd appreciate it if you could say whether COc1cc2nccc(Oc3ccc(NC(=O)c4cn(C)c(=O)cc4Nc4ccccc4)cc3)c2cc1OC has inhibition at least equal to 50%.
Response: Condition not met

Query: I'd appreciate it if you could say whether COc1cc2nccc(Oc3ccc(NC(=O)c4cccnc4Nc4ccc(F)c(Br)c4)cc3F)c2cc1OC has inhibition at least equal to 50%.
Response: Condition not met

Query: I'd appreciate it if you could say whether COc1cc2nccc(Oc3ccc(NC(=O)c4cnc(Cl)cc4Nc4ccc(Cl)cc4)cc3)c2cc1OC has inhibition at least equal to 50%.
Response: Condition met

Query: I'd appreciate it if you could say whether COc1cc2nccc(Oc3ccc(NC(=O)c4cnc(Cl)cc4Nc4ccccc4Br)cc3)c2cc1OC has inhibition at least equal to 50%.
Response: Condition met

Query: I'd appreciate it if you could say whether COc1cc2nccc(Oc3ccc(NC(=O)c4cnc(Cl)cc4Nc4cccc5ccccc45)cc3)c2cc1OC has inhibition at least equal to 50%.
Response: Condition met

Query: I'd appreciate it if you could say whether COc1cc2nccc(Oc3ccc(NC(=O)c4cnc(Cl)cc4Nc4ccc(F)c(Br)c4)cc3F)c2cc1OC has inhibition at least equal to 50%.
Response: Condition met

Query: I'd appreciate it if you could say whether COc1cc2nccc(Oc3ccc(NC(=O)c4cnc(Cl)cc4Nc4ccc(F)c(Br)c4)cc3)c2cc1OC has inhibition at least equal to 50%.
Response: Condition met

Query: I'd appreciate it if you could say whether COc1cc2nccc(Oc3ccc(NC(=O)c4cnc(Cl)cc4Nc4ccccc4)cc3)c2cc1OC has inhibition at least equal to 50%.
Response: Condition not met

Query: I'd appreciate it if you could say whether COc1cc2nccc(Oc3ccc(NC(=O)c4cnc(Cl)cc4Nc4ccc(Br)cc4F)cc3)c2cc1OC has inhibition at least equal to 50%.
Response: Condition met

----------
# TARGET ENTITY: UniProt Q96GD4
# Sequence (Q96GD4 whole entry): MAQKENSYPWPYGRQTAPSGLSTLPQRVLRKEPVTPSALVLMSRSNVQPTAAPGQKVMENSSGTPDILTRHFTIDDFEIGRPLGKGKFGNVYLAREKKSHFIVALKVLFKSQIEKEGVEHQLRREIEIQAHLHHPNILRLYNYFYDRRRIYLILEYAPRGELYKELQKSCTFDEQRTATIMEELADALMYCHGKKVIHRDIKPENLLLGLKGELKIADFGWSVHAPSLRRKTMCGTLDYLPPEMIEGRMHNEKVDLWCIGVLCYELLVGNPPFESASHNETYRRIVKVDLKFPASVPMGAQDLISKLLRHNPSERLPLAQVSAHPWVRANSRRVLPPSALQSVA
# PROTOCOL: Inhibition of Aurora B (unknown origin) at 0.2 uM pre-incubated for 10 mins before FAM-labeled peptide substrate addition by mobility shift assay relative to control
PARAMETER: inhibition

COc1cc2nccc(Oc3ccc(NC(=O)c4cnc(Cl)cc4Nc4ccc(F)c(Br)c4)cc3)c2cc1OC: 30.1%
COc1cc2nccc(Oc3ccc(NC(=O)c4c[nH]c(=O)cc4Nc4ccccc4)cc3)c2cc1OC: 38.7%
COc1cc2nccc(Oc3ccc(NC(=O)c4c(Nc5ccc(F)c(Br)c5)cc(C)nc4Cl)cc3F)c2cc1OC: 17.7%
COc1cc2nccc(Oc3ccc(NC(=O)c4cnc(Cl)cc4Nc4cccc5ccccc45)cc3)c2cc1OC: 46.3%
COc1cc2nccc(Oc3ccc(NC(=O)c4cnc(Cl)cc4Nc4ccccc4Cl)cc3)c2cc1OC: 57.1%

Now for another entry.
Query: Which value of inhibition has been reported for COc1cc2nccc(Oc3ccc(NC(=O)c4cnc(Cl)cc4Nc4ccccc4F)cc3)c2cc1OC in the records?
Response: 50.1%

----------
# TARGET ENTITY: Aurora kinase B (Homo sapiens)
# PROTOCOL: Inhibition of Aurora B (unknown origin) at 0.2 uM pre-incubated for 10 mins before FAM-labeled peptide substrate addition by mobility shift assay relative to control
Classify by measured inhibition: condition met if it is equal to or exceeds 40%, condition not met if it is smaller.

COc1cc2nccc(Oc3ccc(NC(=O)c4cnc(Cl)cc4Nc4ccccc4Br)cc3)c2cc1OC: condition met

Query: I'd appreciate it if you could say whether COc1cc2nccc(Oc3ccc(NC(=O)c4cnc(Cl)cc4Nc4ccc(Cl)cc4)cc3)c2cc1OC has inhibition at least equal to 40%.
Response: condition not met

Query: I'd appreciate it if you could say whether COc1cc2nccc(Oc3ccc(NC(=O)c4cnc(Cl)cc4Nc4cccc(Cl)c4)cc3)c2cc1OC has inhibition at least equal to 40%.
Response: condition not met

----------
# TARGET ENTITY: UniProtKB Q96GD4
# PROTOCOL: Inhibition of Aurora B (unknown origin) at 0.2 uM pre-incubated for 10 mins before FAM-labeled peptide substrate addition by mobility shift assay relative to control
PARAMETER: inhibition (%)
Answers are plain numbers, in %.

List reported inhibition for each of these compounds:
1. COc1cc2nccc(Oc3ccc(NC(=O)c4cnc(Cl)cc4Nc4ccc(F)cc4)cc3)c2cc1OC
2. COc1cc2nccc(Oc3ccc(NC(=O)C4(C(=O)Nc5ccc(F)cc5)CC4)cc3)c2cc1OC [CABOZANTINIB]
3. COc1cc2nccc(Oc3ccc(NC(=O)c4cn(C)c(=O)cc4Nc4ccccc4)cc3)c2cc1OC
4. COc1cc2nccc(Oc3ccc(NC(=O)c4cccnc4Nc4ccc(F)c(Br)c4)cc3F)c2cc1OC
5. COc1cc2nccc(Oc3ccc(NC(=O)c4cnc(Cl)cc4Nc4ccccc4)cc3)c2cc1OC

Response:
[51.6, 38.3, 31.1, 40.7, 52.1]
